assay: Aqueous solubility of compound in FaSSIF at pH 6.28; type: physicochemical
readout.label: solubility (µM)
Give the number; µM is assumed, so skip it.

Query: What does the record list as solubility for COc1ncc(C(=O)N2CCN(C(=O)/C=C/c3ccc4c(c3)OC(F)(F)O4)CC2)cn1 ?
Result: 40

---

assay: Half life in human liver microsomes; type: ADME, Microsome
readout.label: half-life

Query: What does the record list as half-life for COc1ncc(C(=O)N2CCN(C(=O)/C=C/c3ccc4c(c3)OC(F)(F)O4)CC2)cn1 ?
Result: > 3.11 h

---

assay: Half life in mouse Hepatocyte; type: ADME, cell-based; settings: hepatocytes
readout.label: half-life (h)
Give the number; h is assumed, so skip it.

Query: What does the record list as half-life for COc1ncc(C(=O)N2CCN(C(=O)/C=C/c3ccc4c(c3)OC(F)(F)O4)CC2)cn1 ?
Result: 22.2
